- Target: T1, AAV9 capsid (adeno-associated virus serotype 9, UniProt Q6JC40)
- T1 construct: also called wtAAV9; AAV9 vector; copies: 60
- Test Method Notes: far-Western, overlay or dot blot; native dot immunoblot: native capsids adsorbed onto nitrocellulose; human mAbs at ~1 µg/ml in PBS with 6% milk, 0.1% Tween-20, 1 h; anti-human-HRP
- Condition: both partners purified
Attribute Measured: binding result

// returns reported binding result for input mAb1-2 (antibody, V domains shown, also called Fab1-2 (so named in the dot blot sentence)) VH: EVQLVESGGGLVQPGGSLRLSCAASGFIFSNYWMSWVRQAPGKGPEWVANIKQDGSANHYVDSVKGRFTISRDNAKNSLYLQMNSLRAEDTAVYYCAREAYQDWNYDYWGQGTLVTVSS VL: DIQMTQSPSSLSASVGDRVTVTCRASEFISRYLNWYQQKPGKAPKVLIYAASSLQSGVPSRFSGSGSGTDFTLTISSLQPEDFATYYCQQSYSTPYTFGQGTKLEIK
binds

// returns reported binding result for input mAb1-7 (antibody, V domains shown) VH: QVQLQESGPGLVKPSETLSLTCTVSGDSIRSYYWSWIRQPPGKGLEWIGHIYYSGSTNYKPSLKSRATILVDTSKNQFSLKLRSVTAADTAVYYCAREMTGVAGRGWDHWGQGTLVTVSS VL: ALTQPPSASGTPGQRVTISCSGSSSNIGSNTVNWYQQLPGTAPKLLIFINNQRPSGVPDRFSGSKSGTSASLAISGLQSEDEADYYCTTWDGSLNGYVFGTRTEVTVL
binds
